- Tested on: collagenase;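 further: nutrient agar containing 0.5% Azocoll with inhibitor, topped by a fresh hide piece, kept at 30 °C, collagenase from hide bacteria scored visually as clearing zone around growth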
- measurement-parameters: Conc. 0.2%, day 4
quantity-kind: Collagenase Activity/Days 4

> print(dat)
                                   compound  target.under.test  result
1  O=C([O-])CN(CCN(CC(=O)[O-])CC(=O)O)CC(=O)[O-].[Na+].[Na+].[Na+] [Na3EDTA]        collagenase      ++
2  O=C([O-])CN(CCN(CC(=O)[O-])CC(=O)[O-])CC(=O)[O-].[Na+].[Na+].[Na+].[Na+] [Na4EDTA]        collagenase      ++
3  O=C(O)CN(CCOCCOCCN(CC(=O)O)CC(=O)O)CC(=O)O [Na4EGTA]        collagenase       +
4  O=C([O-])CN(CCN(CC(=O)O)CC(=O)O)CC(=O)[O-].[Na+].[Na+] [Na2EDTA]        collagenase       0
